molecular target: human CCR6 (Homo sapiens, UniProt P51684); experiment: Migration (chemotaxis) assay, hCCR6-transfected Ba/F3 cells toward CCL20; settings: hCCR6-transfected Ba/F3 cells in human serum; recombinant human CCL20 10 nM; 37° C. 45 minutes; read-out: Potency (IC50 value in the migration assay)
Sequence (P51684 whole entry): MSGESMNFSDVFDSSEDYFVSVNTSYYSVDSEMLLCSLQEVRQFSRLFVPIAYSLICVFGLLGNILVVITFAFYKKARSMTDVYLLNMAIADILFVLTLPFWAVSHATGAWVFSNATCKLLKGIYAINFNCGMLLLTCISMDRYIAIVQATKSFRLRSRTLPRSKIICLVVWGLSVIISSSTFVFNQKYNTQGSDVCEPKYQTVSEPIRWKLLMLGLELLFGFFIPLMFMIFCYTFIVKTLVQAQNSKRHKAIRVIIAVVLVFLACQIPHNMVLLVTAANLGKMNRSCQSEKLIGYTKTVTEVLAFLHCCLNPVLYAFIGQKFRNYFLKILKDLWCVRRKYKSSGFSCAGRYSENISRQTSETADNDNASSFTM
pIC50: −log10 of the molar value.
What pIC50 was measured for each of the following?

A selection of reference data follows.
{"columns": ["compound", "property measured", "result"],
 "data": [
  ["NC(=O)CC1CCCN(c2ccc(S(=O)(=O)N3CCC(Nc4ccc(C(F)(F)F)cn4)CC3)cc2)C1 (stereo not shown)", "pIC50", "5.00 to 7.00"],
  ["O=S(=O)(c1ccc(N2CCC[C@H](O)C2)cc1)N1CCC(Nc2ccc(C(F)(F)F)cn2)CC1", "pIC50", "7.00 to 8.30"],
  ["O=S(=O)(c1ccc(N2CCC(c3cnc[nH]3)CC2)cc1)N1CCC(Nc2ccc(C(F)(F)F)cn2)CC1", "pIC50", "5.00 to 7.00"],
  ["NC(=O)C1(C2CCN(c3ccc(S(=O)(=O)N4CCC(Nc5ccc(C(F)(F)F)cn5)CC4)cc3)CC2)CC1", "pIC50", "7.00 to 8.30"],
  ["CC(=O)NCC(=O)N1CCN(c2ccc(S(=O)(=O)N3CCC(Nc4ccc(C(F)(F)F)cn4)CC3)cc2)CC1", "pIC50", "5.00 to 7.00"],
  ["O=c1[nH]c2cc(-c3ccc(S(=O)(=O)N4CCC(Nc5ccc(C(F)(F)F)cn5)CC4)cc3)ccc2o1", "pIC50", "7.00 to 8.30"]
]}

Provide the documented pIC50 with human CCR6 (Homo sapiens, UniProt P51684) as the system for O=S(=O)(c1ccc(-c2cc3cc[nH]c3nc2F)cc1)N1CCC(Nc2ccc(C(F)(F)F)cn2)CC1
7.00 to 8.30

* * *

target: human CCR6 (Homo sapiens); construct: expressed in transfected cells; host or cells: Ba/F3 cells (murine pro-B line), hCCR6-transfected, CMV promoter, sodium butyrate induction; test: Migration (chemotaxis) assay, hCCR6-transfected Ba/F3 cells toward CCL20; assay type: cell-based; details: hCCR6-transfected Ba/F3 cells in human serum; recombinant human CCL20 10 nM; 37° C. 45 minutes; read-out: Potency (IC50 value in the migration assay)
property measured: IC50

A selection of reference data follows.
{"columns": ["smiles code", "result"],
 "data": [
  ["CC1(C)Oc2ccc(-c3ccc(S(=O)(=O)N4CCC(Nc5ccc(C(F)(F)F)cn5)CC4)cc3)cc2NC1=O", "0.005 to 0.1 µM"],
  ["CC(C)(C)OC(=O)N[C@H]1CCCN(c2ccc(S(=O)(=O)N3CCC(Nc4ccc(C(F)(F)F)cn4)CC3)cc2)C1", "0.1 to 10 µM"],
  ["CC1(O)CCN(c2ccc(S(=O)(=O)N3CCC(Nc4ccc(C(F)(F)F)cn4)CC3)cc2)CC1", "0.005 to 0.1 µM"],
  ["O=C1NS(=O)(=O)c2ccc(-c3ccc(S(=O)(=O)N4CCC(Nc5ccc(C(F)(F)F)cn5)CC4)cc3)cc21", "0.005 to 0.1 µM"],
  ["NC(=O)c1cc(-c2ccc(S(=O)(=O)N3CCC(Nc4ccc(C(F)(F)F)cn4)CC3)cc2)cc2c1NC(=O)C2", "< 0.005 µM"]
]}

Each of the following entries comes with a recorded value; kindly state IC50 for each.
1. O=S(=O)(c1ccc(-c2ccc3[nH]nnc3c2)cc1)N1CCC(Nc2ccc(C(F)(F)F)cn2)CC1
2. N#Cc1c[nH]c2ncc(-c3ccc(S(=O)(=O)[C@H]4CC[C@H](Nc5ccc(C(F)(F)F)cn5)CC4)cc3)cc12
3. COC(=O)c1cc(-c2ccc(S(=O)(=O)N3CCC(Nc4ccc(C(F)(F)F)cn4)CC3)cc2)cc2c1NC(=O)C2

["0.1 to 10 µM", "< 0.005 µM", "< 0.005 µM"]

* * *

molecular target: human CCR6 (Homo sapiens, UniProt P51684); experiment: Migration (chemotaxis) assay, hCCR6-transfected Ba/F3 cells toward CCL20; details: hCCR6-transfected Ba/F3 cells in human serum; recombinant human CCL20 10 nM; 37° C. 45 minutes; read-out: Potency (IC50 value in the migration assay)
pIC50: −log10 of the molar value.
What pIC50 was measured for each of the following?

A selection of reference data follows.
{"columns": ["molecule", "result"],
 "data": [
  ["O=S(=O)(c1ccc(N2CCC(Nc3ccccc3)CC2)cc1)N1CCC(Nc2ccc(C(F)(F)F)cn2)CC1", "7.00 to 8.30"],
  ["NC(=O)C1CC12CCN(c1ccc(S(=O)(=O)N3CCC(Nc4ccc(C(F)(F)F)cn4)CC3)cc1)CC2 (centres unmarked)", "5.00 to 7.00"]
]}

Each of the following entries comes with a recorded value; kindly state pIC50 for each.
1. NC(=O)C1(O)CCN(c2ccc(S(=O)(=O)N3CCC(Nc4ccc(C(F)(F)F)cn4)CC3)cc2)CC1
2. O=C1CN(c2ccc(S(=O)(=O)N3CCC(Nc4ccc(C(F)(F)F)cn4)CC3)cc2)CCN1
3. O=S(=O)(c1ccc(N2CCC(O)CC2)nc1)N1CCC(Nc2ccc(C(F)(F)F)cn2)CC1
4. Cn1nc(N)c2cc(-c3ccc(S(=O)(=O)N4CCC(Nc5ccc(C(F)(F)F)cn5)CC4)cc3)ccc21
5. O=S(=O)(c1ccc(N2CCC3(CC2)CC(O)C3)cc1)N1CCC(Nc2ccc(C(F)(F)F)cn2)CC1
6. Cc1nc2cc(-c3ccc(S(=O)(=O)N4CCC(Nc5ccc(C(F)(F)F)cn5)CC4)cc3)ccc2[nH]1
7. O=S(=O)(c1ccc(-c2ccc3c(c2)OCCO3)cc1)N1CCC(Nc2ccc(C(F)(F)F)cn2)CC1
8. CC(C)(C)OC(=O)N[C@H]1CCN(c2ccc(S(=O)(=O)N3CCC(Nc4ccc(C(F)(F)F)cn4)CC3)cc2)C1

1: 7.00 to 8.30; 2: 5.00 to 7.00; 3: 5.00 to 7.00; 4: > 8.30; 5: 7.00 to 8.30; 6: 7.00 to 8.30; 7: 5.00 to 7.00; 8: 5.00 to 7.00

Each of the following entries comes with a recorded value; kindly state pIC50 for each.
1. NC(=O)N1CC2(C1)CN(c1ccc(S(=O)(=O)N3CCC(Nc4ccc(C(F)(F)F)cn4)CC3)cc1)C2
2. CC(C)(C)OC(=O)NCC1CN(c2ccc(S(=O)(=O)N3CCC(Nc4ccc(C(F)(F)F)cn4)CC3)cc2)C1
3. NC(=O)CC1CCN(c2ccc(S(=O)(=O)N3CCC(Nc4ccc(C(F)(F)F)cn4)CC3)cc2)CC1 [Example 1.155]
4. CC(=O)NC1CC2(C1)CN(c1ccc(S(=O)(=O)N3CCC(Nc4ccc(C(F)(F)F)cn4)CC3)cc1)C2

["> 8.30", "7.00 to 8.30", "> 8.30", "7.00 to 8.30"]

* * *

target: human CCR6 (Homo sapiens); test: Migration (chemotaxis) assay, hCCR6-transfected Ba/F3 cells toward CCL20; details: hCCR6-transfected Ba/F3 cells in human serum; recombinant human CCL20 10 nM; 37° C. 45 minutes; read-out: Potency (IC50 value in the migration assay)
pIC50: −log10 of the molar value.
What pIC50 was measured for each of the following?

{"columns": ["compound", "property measured", "result"],
 "data": [
  ["NC(=O)N1CCCN(c2ccc(S(=O)(=O)N3CCC(Nc4ccc(C(F)(F)F)cn4)CC3)cc2)CC1 [Example 1.203]", "pIC50", "7.00 to 8.30"]
]}

Each of the following entries comes with a recorded value; kindly state pIC50 for each.
1. CC(C)(C)OC(=O)NC1CCN(c2ccc(S(=O)(=O)N3CCC(Nc4ccc(C(F)(F)F)cn4)CC3)cc2)CC1 [Example 1.217]
2. O=C1N(CCO)c2ncc(-c3ccc(S(=O)(=O)N4CCC(Nc5ccc(C(F)(F)F)cn5)CC4)cc3)cc2C12CCOCC2 [Example 1.020]
3. CNc1n[nH]c2ncc(-c3ccc(S(=O)(=O)N4CCC(Nc5ccc(C(F)(F)F)cn5)CC4)cc3)cc12 [Example 1.049]
4. NC(=O)NCCC1CCN(c2ccc(S(=O)(=O)N3CCC(Nc4ccc(C(F)(F)F)cn4)CC3)cc2)CC1 [Example 1.125]
5. Nc1nc(=O)c2cc(-c3ccc(S(=O)(=O)N4CCC(Nc5ccc(C(F)(F)F)cn5)CC4)cc3)ccc2[nH]1 [Example 1.015]
6. O=C(CC1CCN(c2ccc(S(=O)(=O)N3CCC(Nc4ccc(C(F)(F)F)cn4)CC3)cc2)CC1)NCCO [Example 1.133]

1. 7.00 to 8.30
2. 7.00 to 8.30
3. > 8.30
4. 7.00 to 8.30
5. > 8.30
6. 5.00 to 7.00
